- System: HeLa cells
- measurement description: Measurement of the cell cycle inhibition in HeLa cells
- Type: cell-based
- test context: HeLa B cells, 20 h incubation with compound; FACS ratio G0/G1 to G2/M vs DMSO; concentration at which 50% of cells are in cell cycle arrest
Below, each entry is listed with its recorded pIC50.
Remember, pIC50 is on a log scale: it is -log10 of the molar concentration.

Before answering, review these 4 worked examples.
compound	system tested	quantity	test value
C[C@H](Nc1nc(-n2cc(C#N)cn2)nc(Cl)c1-c1c(F)cc(F)cc1F)C(F)(F)F	HeLa cells	pIC50	7.77
Cc1cc(C)n(-c2nc(Cl)c(-c3c(F)cc(F)cc3F)c(NC(C)C)n2)n1	HeLa cells	pIC50	7.60
CC1CCCN1c1nc(-n2cncn2)nc(Cl)c1-c1c(F)cccc1Cl (centres unmarked)	HeLa cells	pIC50	7.34
Fc1cc(F)c(-c2c(Cl)nc(-n3cc(Br)cn3)nc2N2CCCCC2)c(F)c1	HeLa cells	pIC50	7.59

Query :: Notebook entry, HeLa cells assay: pIC50 of Cc1c[nH]n(-c2nc(Cl)c(-c3c(F)cc(F)cc3F)c(N[C@@H](C)C(F)(F)F)n2)c1=O = ?
Result :: 7.57

Query :: Notebook entry, HeLa cells assay: pIC50 of C[C@H](Nc1nc(-c2nccs2)nc(Cl)c1-c1c(F)cc(F)cc1F)C(F)(F)F = ?
Result :: 7.85

Query :: Notebook entry, HeLa cells assay: pIC50 of COc1c(C)cnn1-c1nc(Cl)c(-c2c(F)cc(F)cc2F)c(N[C@@H](C)C(F)(F)F)n1 = ?
Result :: 7.59

Query :: Notebook entry, HeLa cells assay: pIC50 of CC(C)[C@H](C)Nc1nc(C(N)=NO)nc(Cl)c1-c1ccc([N+](=O)[O-])cc1Cl = ?
Result :: 7.52

* * *

- Tested on: HeLa cells
- measurement description: Measurement of the cell cycle inhibition in HeLa cells
- Type: cell-based
- test context: HeLa B cells, 20 h incubation with compound; FACS ratio G0/G1 to G2/M vs DMSO; concentration at which 50% of cells are in cell cycle arrest
- Experimental: Measurement of the Cell Cycle Inhibition in HeLa Cells—Test Procedure: […] The supernatant is removed and the cells lysed with 0.5 ml RNase Buffer (10 mM NaCitrate, 0.1% Nonidet NP40, 50 μg/ml RNase, 10 μg/ml Propidium iodide) per well. […] Samples are measured in a FACS machine (Beckton Dickinson) at the following settings: […] The ratio of cells in G0/G1-phase to G2/M phase is calculated and compared to the value for the controls (DMSO) only. […]
Below, each entry is listed with its recorded pIC50.
Remember, pIC50 is on a log scale: it is -log10 of the molar concentration.

molecular string	pIC50
COc1cc(F)c(-c2c(Cl)nc(C(N)=O)nc2N[C@@H](C)C(F)(F)F)c(F)c1	7.52
C[C@H](Nc1nc(C(N)=NO)nc(Cl)c1-c1cc(F)ccc1Cl)C(F)(F)F	7.44
CC1CCN(c2nc(C(N)=NO)nc(Cl)c2-c2c(F)cccc2F)CC1	7.68

Query :: Any idea what pIC50 was measured for Cc1ccn(-c2nc(Cl)c(-c3c(F)cc(F)cc3F)c(NC(C)C)n2)n1 ?
Result :: 7.41

Query :: Any idea what pIC50 was measured for Fc1cc(F)c(-c2c(Cl)nc(-n3cncn3)nc2N2CCCCC2)c(F)c1 ?
Result :: 7.66

Query :: Any idea what pIC50 was measured for Fc1cc(F)c(-c2c(Cl)nc(-c3nccs3)nc2NC2CCCC2)c(F)c1 ?
Result :: 7.64

* * *

- Test system: HeLa cells
- measurement description: Measurement of the cell cycle inhibition in HeLa cells
- Assay type: cell-based
- test context: HeLa B cells, 20 h incubation with compound; FACS ratio G0/G1 to G2/M vs DMSO; concentration at which 50% of cells are in cell cycle arrest
quantity: pIC50
Remember, pIC50 is on a log scale: it is -log10 of the molar concentration.

Before answering, review these 2 worked examples.
compound	test value
CC1CCN(c2nc(-n3ccnn3)nc(Cl)c2-c2c(F)cccc2F)CC1 [Example 117]	7.72
CON=C(N)c1nc(Cl)c(-c2c(F)cc(OC)cc2F)c(N[C@@H](C)C(F)(F)F)n1 [Example 182]	7.96

Query :: Any idea what pIC50 was measured for CC(C)[C@H](C)Nc1nc(-n2cccn2)nc(Cl)c1-c1c(F)cc(F)cc1F [Example 138] ?
Result :: 7.64

Query :: Any idea what pIC50 was measured for CC1CCCN1c1nc(-n2cncn2)nc(Cl)c1-c1c(F)cc(F)cc1F (stereo not shown) [Example 75] ?
Result :: 7.85

* * *

- System: HeLa cells
- measurement description: Measurement of the cell cycle inhibition in HeLa cells
- Type: cell-based
- test context: HeLa B cells, 20 h incubation with compound; FACS ratio G0/G1 to G2/M vs DMSO; concentration at which 50% of cells are in cell cycle arrest
Below, each entry is listed with its recorded pIC50.
Remember, pIC50 is on a log scale: it is -log10 of the molar concentration.

Before answering, review these 5 worked examples.
compound	pIC50
COc1cc(F)c(-c2c(Cl)nc(C(N)=NO)nc2N[C@@H](C)C(F)(F)F)c(F)c1	8.22
CC1CCN(c2nc(-n3cccn3)nc(Cl)c2-c2c(F)cccc2F)CC1	7.64
CC(Nc1nc(-n2ccc(N)n2)nc(Cl)c1-c1c(F)cc(F)cc1F)C(F)(F)F (stereo not shown)	8.24
CC(C)Nc1nc(-n2cc(Br)cn2)nc(Cl)c1-c1c(F)cccc1Cl	7.80
Cc1ccc(-c2c(Cl)nc(-n3cccn3)nc2N2CCC(C)CC2)c(F)c1	7.41

Query :: Any idea what pIC50 was measured for CCN(CC)c1nc(-c2cnccn2)nc(Cl)c1-c1c(F)cc(F)cc1F ?
Result :: 7.42

Query :: Any idea what pIC50 was measured for COCC(C)Nc1nc(-n2ccc(N)n2)nc(Cl)c1-c1ccc(C)cc1F (stereo not shown) ?
Result :: 7.42

Query :: Any idea what pIC50 was measured for COc1ccc(-c2c(Cl)nc(C(N)=O)nc2N[C@@H](C)C(F)(F)F)c(Cl)c1 ?
Result :: 7.64

Query :: Any idea what pIC50 was measured for CC1CCN(c2nc(-c3cccnn3)nc(Cl)c2-c2c(F)cc(F)cc2F)CC1 ?
Result :: 7.68

Query :: Any idea what pIC50 was measured for NC(=NO)c1nc(Cl)c(-c2c(F)cc(F)cc2F)c(NCC(F)(F)F)n1 ?
Result :: 7.74

* * *

Below, each entry is listed with its recorded IC50.
- Test system: HeLa cells
- measurement description: Measurement of the cell cycle inhibition in HeLa cells
- Type: cell-based
- test context: HeLa B cells, 20 h incubation with compound; FACS ratio G0/G1 to G2/M vs DMSO; concentration at which 50% of cells are in cell cycle arrest
Give the value in nM but do not write nM after it.

Before answering, review these 6 worked examples.
molecule	system tested	IC50, nM
CCC(C)Nc1nc(-n2cc(C#N)cn2)nc(Cl)c1-c1c(F)cccc1Cl (stereo not drawn) [Example 163]	HeLa cells	30
C[C@H](Nc1nc(-n2ccnn2)nc(Cl)c1-c1c(F)cc(F)cc1F)C(F)(F)F [Example 205]	HeLa cells	8.3
CON=C(N)c1nc(Cl)c(-c2ccc(OC)cc2Cl)c(N[C@@H](C)C(C)C)n1 [Example 186]	HeLa cells	33
COc1cc(F)c(-c2c(Cl)nc(-n3ccnn3)nc2N2CCC(C)CC2)c(F)c1 [Example 69]	HeLa cells	21
C[C@H](Nc1nc(C(N)=NO)nc(Cl)c1-c1ccc(F)cc1Cl)C(F)(F)F [Example 172]	HeLa cells	21
CC1CCN(c2nc(-n3cncn3)nc(Cl)c2-c2c(F)cccc2Cl)CC1 [Example 47]	HeLa cells	26

Query :: Any idea what IC50 was measured for CC1CCCN1c1nc(-n2cccn2)nc(Cl)c1-c1c(F)cccc1F (stereo not drawn) [Example 140] ?
Result :: 20

Query :: Any idea what IC50 was measured for Cc1cc(C)n(-c2nc(Cl)c(-c3c(F)cc(F)cc3F)c(N3CCC(C)CC3)n2)n1 [Example 30] ?
Result :: 48

* * *

- Test system: HeLa cells
- measurement description: Measurement of the cell cycle inhibition in HeLa cells
- Format: cell-based
- test context: HeLa B cells, 20 h incubation with compound; FACS ratio G0/G1 to G2/M vs DMSO; concentration at which 50% of cells are in cell cycle arrest
IC50 less than 40 nM is YES; IC50 greater than or equal to 40 nM is NO.

compound	class name
CCCC(C)Nc1nc(-n2ccc(N)n2)nc(Cl)c1-c1ccc(C)cc1F (stereo not shown)	NO
CC(C)Nc1nc(-c2ccccn2)nc(Cl)c1-c1c(F)cc(F)cc1F	NO
CC1CCN(c2nc(-n3cccn3)nc(Cl)c2-c2c(F)cccc2Cl)CC1	YES
Fc1cc(F)c(-c2c(Cl)nc(-n3ccnn3)nc2NCC(F)(F)F)c(F)c1	NO
COc1cc(F)c(-c2c(Cl)nc(C(N)=O)nc2N2CCC(C)CC2)c(F)c1	YES

Query :: Does the reported IC50 of the following compound sit strictly below 40 nM? CC(C)[C@@H](C)Nc1nc(-n2cccn2)nc(Cl)c1-c1c(F)cccc1Cl
Result :: YES

Query :: Does the reported IC50 of the following compound sit strictly below 40 nM? C=CCN(C)c1nc(-n2ccnn2)nc(Cl)c1-c1c(F)cc(F)cc1F
Result :: YES

Query :: Does the reported IC50 of the following compound sit strictly below 40 nM? CON=C(N)c1nc(Cl)c(-c2ccc(F)cc2Cl)c(N[C@@H](C)C(C)C)n1
Result :: YES

Query :: Does the reported IC50 of the following compound sit strictly below 40 nM? Cc1cnn(-c2nc(Cl)c(-c3c(F)cc(F)cc3F)c(N[C@@H](C)C(F)(F)F)n2)c1Cl
Result :: YES

Query :: Does the reported IC50 of the following compound sit strictly below 40 nM? CC(C)Nc1nc(-c2ccccn2)nc(Cl)c1-c1c(F)cccc1F
Result :: YES
